Where a name gives a salt, the structure may show the parent alone.
Measure: melting point

Lab note: each molecule below needs its melting point filled in.
1. CCCn1nc(-c2ccc(OCCCN3CCC(C)CC3)cc2)c2sccc2c1=O (as salt: HCl) [Example 34]
2. C[C@@H]1CCCN1CCCOc1ccc(-c2ccc(=O)[nH]n2)cc1C#N [Example 129]
3. CC(C)n1nc(-c2ccc(OCCCN3CCCCC3)cc2)c2sccc2c1=O (as salt: HCl) [Example 24]
4. Cn1nc(-c2ccc(OCCN3CCCCC3)cc2)c2ccccc2c1=O (as salt: HCl) [Example 51]
5. O=C1CCC(c2ccc(OC3CCN(C4CCC4)CC3)cc2)=NN1c1ccccn1 (as salt: HCl) [Example 158]

Solution:
168 to 170 °C
> 200 °C (dec.)
195 to 196 °C
253 to 254 °C
263 to 265 °C

For the 5 molecules below, give their melting point values.
1. O=C1NN=C(c2ccc(OC3CCN(C4CCC4)CC3)cc2)C2CC12 (stereo not shown) [Example 244]
2. Cc1n[nH]c(=O)cc1-c1ccc(OCCCN2CCCCCC2)cc1 (as salt: hydrochloride) [Example 90]
3. C[C@@H]1CCCN1CCCOc1ccc(C2=NN(CC(F)(F)F)C(=O)CC2)cc1 [Example 168]
4. Cn1ncc(-c2ccc(OCCCN3CCCCC3)cc2)cc1=O (as salt: hydrochloride) [Example 92]
5. CC(C)n1nc(-c2ccc(OCCCN3CCC[C@H]3C)cc2)ccc1=O (as salt: tartrate) [Example 5]

Solution:
["79 to 81 °C", "204 to 206 °C", "76 to 78 °C", "253 to 254 °C", "60 to 64 °C"]

Kindly give each listed record's melting point.
1. O=c1ccc(-c2ccc(OCC(O)CN3CCCCC3)cc2)n[nH]1 (stereo not shown) [Example 255]
2. C[C@@H]1CCCN1CCCOc1ccc(-c2ccc(=O)n(CC(F)(F)F)n2)cc1 [Example 170]

Solution:
1: 185 °C; 2: 121 to 123 °C
